# measurement.target: T1, recombinant human ErbB3 monomeric protein (cleaved rhErbB3) (human, UniProt P21860 20-643, limits assumed)
# T1 construct: Monomer made by protease cleavage of the Fc fusion; also called Monomeric ErbB3
# experiment: SPR Biacore 37 C; supernatant antibody captured on anti-human Fc, cleaved rhErbB3 injected
pKd: −log10 of the molar value.

binder	pKd
Sh24C05-31 (antibody, human IgG1, kappa, V domains shown, Humanized, human IgG1/kappa) VH: QVQLVESGGGLVKPGGSLRLSCAASGFTFSDYAMSWIRQAPGKGLEWVSTISDGGTYTYYPDNVKGRFTISRDNAKNSLYLQMNSLRAEDTAVYYCAREWGDYDGFDYWGQGTLVTVSS VL: DIQMTQSPSSLSASVGDRVTITCRASQEISGYLSWYQQKPGKAPKRLIYAASTLDSGVPSRFSGSGSGTEFTLTISSLQPEDFATYYCLQYDSYPYTFGQGTKLEIKR	10.06
Sh24C05-43 (antibody, human IgG1, kappa, V domains shown, Humanized, human IgG1/kappa) VH: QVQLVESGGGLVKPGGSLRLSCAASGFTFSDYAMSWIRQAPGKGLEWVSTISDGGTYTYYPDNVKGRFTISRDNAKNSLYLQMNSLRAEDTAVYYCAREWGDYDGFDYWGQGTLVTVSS VL: DIQLTQSPSFLSASVGDRVTITCRASQEISGYLSWYQQKPGKAPKLLIYAASTLDSGVPSRFSGSGSGTEFTLTISSLQPEDFATYYCLQYDSYPYTFGQGTKLEIKR	9.24
Sh24C05-33 (antibody, human IgG1, kappa, V domains shown, Humanized, human IgG1/kappa) VH: EVQLVESGGGLVKPGGSLRLSCAASGFTFSDYAMSWVRQAPGKGLEWVSTISDGGTYTYYPDNVKGRFTISRDNAKNSLYLQMNSLRAEDTAVYYCAREWGDYDGFDYWGQGTLVTVSS VL: DIQMTQSPSSLSASVGDRVTITCRASQEISGYLSWYQQKPGKAPKLLIYAASTLDSGVPSRFSGSGSGTDFTFTISSLQPEDIATYYCLQYDSYPYTFGQGTKLEIKR	8.97

Where do these numbers come from? They come from patent US20180030149A1.
